assay: pKaH+ determination by Lambert's method with reference bases (1H NMR); conditions: Table 1, rotaxanes
Observable: pKaH+ (MeCN)

Some solved entries appear below for comparison.
Compound Structure String | pKaH+ (MeCN)
C1COCCOCCOCCOCCOCCOCCO1.FC(F)(F)c1cc(CNCc2cc(C(F)(F)F)cc(C(F)(F)F)c2)cc(C(F)(F)F)c1 | 24.9
C1COCCOCCOCCOCCOCCOCCOCCO1.CC(C)(C)c1cc(CNCc2cc(C(C)(C)C)cc(C(C)(C)C)c2)cc(C(C)(C)C)c1 | 26.3

1: C1COCCOCCOCCOCCOCCOCCOCCO1.FC(F)(F)c1cc(CNCc2cc(C(F)(F)F)cc(C(F)(F)F)c2)cc(C(F)(F)F)c1
2: C1COCCOCCOCCOCCOCCOCCO1.Cc1cc(C)cc(CNCc2cc(C)cc(C)c2)c1
Lowest pKaH+ (MeCN)? choose 1 or 2 To answer, give the label that identifies your chosen option.
1

====

experiment: Hydrolytic decomposition in 1 M NaOD in 9:1 v/v CD3OD/D2O; conditions: buffer, Half-life, 25 °C, 1 M NaOD in 9:1 d4-methanol:D2O, pseudo-first-order
Observable: Half-life (h)
Provide only the numeric value, understood in h.

# compound C1CCC2=NCCCN2CC1 [DBU, 1,8-diazabicyclo(5.4.0)undec-7-ene, reference compound] ; its Half-life = 10.9

====

Reported values of half-life (25 °C) for individual entries
test: Hydrolytic decomposition in 1 M NaOD in 9:1 v/v CD3OD/D2O; conditions: hydrolytic decomposition, 1 M NaOD, 9:1 CD3OD/D2O, 25 °C

Some solved entries appear below for comparison.
Compound | Observable | Value Measured
C1COCCOCCOCCOCCOCCOCCO1.Cc1cc(C)cc(CNCc2cc(C)cc(C)c2)c1 [21C7⊂6] | half-life (25 °C) | >170 h
C1COCCOCCOCCOCCOCCOCCOCCO1.FC(F)(F)c1cc(CNCc2cc(C(F)(F)F)cc(C(F)(F)F)c2)cc(C(F)(F)F)c1 [24C8⊂3] | half-life (25 °C) | >170 h
C1COCCOCCOCCOCCOCCOCCOCCO1.CC(C)(C)c1cc(CNCc2cc(C(C)(C)C)cc(C(C)(C)C)c2)cc(C(C)(C)C)c1 [24C8⊂2] | half-life (25 °C) | 6 h
C1COCCOCCOCCOCCOCCOCCO1.FC(F)(F)c1cc(CNCc2cc(C(F)(F)F)cc(C(F)(F)F)c2)cc(C(F)(F)F)c1 [21C7⊂3] | half-life (25 °C) | <0.083 h

Kindly consider the entry below.
# compound CN(C)P(=NC(C)(C)C)(N(C)C)N(C)C [P1-^tBu, reference compound] ; its half-life (25 °C) = >170 h

====

experiment: Base-mediated elimination of HBr from 4-bromophenethyl bromide: deprotonation kinetics and protonation vs alkylation; conditions: 25 °C, calculated based on second-order kinetics
Observable: Half-life, t1/2 (days)

Some solved entries appear below for comparison.
Molecule | Half-life, t1/2 [days]
CN(C)P(=NC(C)(C)C)(N(C)C)N(C)C [P1-^tBu, reference compound] | 17.45
C1CCC2=NCCCN2CC1 [DBU, 1,8-diazabicyclo(5.4.0)undec-7-ene, reference compound] | 26.47

A: C1COCCOCCOCCOCCOCCOCCO1.Cc1cc(C)cc(CNCc2cc(C)cc(C)c2)c1 [21C7⊂6]
B: C1COCCOCCOCCOCCOCCOCCOCCO1.FC(F)(F)c1cc(CNCc2cc(C(F)(F)F)cc(C(F)(F)F)c2)cc(C(F)(F)F)c1 [24C8⊂3]
Which item exceeds the other in Half-life, t1/2, A or B ? To answer, give the label that identifies your chosen option.
B
(B: 7.317 days, A: 0.00625 days)
